Source: ChEMBL document CHEMBL1131384

target: 5-hydroxytryptamine receptor 4 (Rattus norvegicus) (UniProt Q62758); assay: Antagonistic activity evaluated by ability to block serotonin induced relaxation (mediated by activation of 5-hydroxytryptamine 4 receptor) in carbamylcholine (10e-6 M) contracted esophagus at a concentration of 10e-8 M.; type: functional, tissue-based
Sequence (Q62758 whole entry): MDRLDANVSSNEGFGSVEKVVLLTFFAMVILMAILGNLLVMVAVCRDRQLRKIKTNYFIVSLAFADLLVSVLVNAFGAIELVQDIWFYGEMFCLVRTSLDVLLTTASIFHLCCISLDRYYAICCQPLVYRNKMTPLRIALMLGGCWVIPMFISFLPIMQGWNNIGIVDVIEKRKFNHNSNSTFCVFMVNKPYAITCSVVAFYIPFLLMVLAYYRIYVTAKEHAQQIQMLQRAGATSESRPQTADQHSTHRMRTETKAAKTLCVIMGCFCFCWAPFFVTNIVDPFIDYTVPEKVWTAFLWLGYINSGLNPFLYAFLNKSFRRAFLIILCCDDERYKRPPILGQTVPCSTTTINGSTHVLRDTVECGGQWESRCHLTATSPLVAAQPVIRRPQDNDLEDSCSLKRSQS
Note to self: use label 1 only for Relaxation readings below 40%; a reading exactly at 40% still gets label 0.

Worked examples follow.
# compound, class
measured = [
    ("CC(C)n1c(=O)n(C(=O)NC2CC3CCC(C2)N3C)c2ccccc21 (centres undefined)", "label 0"),
    ("CC(C)n1nc(C(=O)NCCN2CCC(NC(=O)C34C[C@H]5C[C@@H](C3)C[C@@H](C4)C5)CC2)c2ccccc21", "label 0"),
]

[in] Lab note: Relaxation threshold 40%. Does this compound come in strictly under it? CCCCC(=O)NC1CCN(CCNC(=O)c2nn(C(C)C)c3ccccc23)CC1
[out] label 0

[in] State whether 40% exceeds Relaxation recorded for CC(C)n1nc(C(=O)NC2CC3CCC(C2)N3C)c2ccccc21 (centres undefined) .
[out] label 0

[in] Identify whether the compound CC(C)n1nc(C(=O)NC2CCN(Cc3ccccc3)CC2)c2ccccc21 records Relaxation below 40%.
[out] label 1

[in] Does the reported Relaxation of CC(C)C(=O)NC1CCN(CCNC(=O)c2nn(C(C)C)c3ccccc23)CC1 stay below 40%?
[out] label 1

[in] I'd appreciate it if you could check whether CC(=O)NC1CCN(CCNC(=O)c2nn(C(C)C)c3ccccc23)CC1 has Relaxation smaller than 40%.
[out] label 0

[in] Given CC(C)n1nc(C(=O)NCCN2CCC(NC(=O)C(C)(C)C)CC2)c2ccccc21 , is recorded Relaxation strictly lower than 40%?
[out] label 0

[in] Is Relaxation of CC(C)n1nc(C(=O)NCCN2CCC(NC(=O)c3ccccc3)CC2)c2ccccc21 strictly below 40%?
[out] label 1

###

biological target: 5-hydroxytryptamine receptor 4 (Rattus norvegicus); assay: Antagonistic activity evaluated by ability to block serotonin induced relaxation (via 5-hydroxytryptamine 4 receptor) in carbamylcholine (10e-6 M) contracted esophagus at a concentration of 3*10e-8 M.; assay type: functional
measurementType: Relaxation (%)
Give bare numbers, in %.

Below, 6 molecules whose answers are already recorded.
# molecule, measurementType, endpointValue
data = [
    ("CCn1c(=O)n(C(=O)NC2CC3CCC(C2)N3C)c2ccccc21 (stereo not given)", "Relaxation", 37.5),
    ("CCCn1c(=O)n(C(=O)NC2CC3CCC(C2)N3C)c2ccccc21 (stereo not given)", "Relaxation", 30.7),
    ("CC(C)n1c(=O)n(C(=O)NC2CC3CCC(C2)N3C)c2ccccc21 (stereo not given)", "Relaxation", 13.8),
    ("CC(C)n1nc(C(=O)NC2CCN(CCCOc3ccc(F)cc3)CC2)c2ccccc21", "Relaxation", 36),
    ("CC(C)n1nc(C(=O)NCCN2CCC(NC(=O)C34C[C@H]5C[C@@H](C3)C[C@@H](C4)C5)CC2)c2ccccc21", "Relaxation", 23.2),
    ("CC(C)n1nc(C(=O)NCCN2CCC(NC(=O)C(C)(C)C)CC2)c2ccccc21", "Relaxation", 35),
]

Give Relaxation for all molecules that follow.
1. CC(C)n1nc(C(=O)NC2CCN(Cc3ccccc3)CC2)c2ccccc21
2. CC(C)n1nc(C(=O)NC2CCN(C)CC2)c2ccccc21
3. CCC(C)n1nc(C(=O)NC2CC3CCC(C2)N3C)c2ccccc21 (stereo not given)

[out]
1. 23.3
2. 37.3
3. 46.3

[in] Output reported Relaxation of the molecule CC(=O)NC1CCN(CCNC(=O)c2nn(C(C)C)c3ccccc23)CC1 on 5-hydroxytryptamine receptor 4 (Rattus norvegicus).
[out] 33.5

###

target: 5-hydroxytryptamine receptor 4 (Rattus norvegicus); test: Antagonistic activity by ability to block serotonin induced relaxation (mediated by activation of 5-hydroxytryptamine 4 receptor) in carbamylcholine (10e-6 M) contracted esophagus at a concentration of 10e-6 M.; assay type: functional, tissue-based
Returns: string. Value is true (1) if measured Relaxation is below 8%, and false (0) if it is greater than or equal to it.

# compound, class
data = [
    ("CN1[C@@H]2CC[C@H]1C[C@@H](NC(=O)c1cc(Cl)cc3c1OC(C)(C)C3)C2", "false (0)"),
    ("COc1cc(N)c(Cl)cc1C(=O)NC1CCN(CCCOc2ccc(F)cc2)CC1OC (centres undefined)", "true (1)"),
    ("CCCn1cc(C(=O)NC2CC3CCC(C2)N3C)c2ccccc21 (centres undefined)", "false (0)"),
    ("CCn1nc(C(=O)NC2CC3CCC(C2)N3C)c2ccccc21 (centres undefined)", "true (1)"),
]

[in] hey, is Relaxation for CC(C)n1nc(C(=O)NC2CCN(CCCOc3ccc(F)cc3)CC2)c2ccccc21 lower than 8% or not?
[out] true (1)

[in] Just wondering, is Relaxation of CCCn1nc(C(=O)NC2CC3CCC(C2)N3C)c2ccccc21 (centres undefined) below 8%?
[out] true (1)

[in] Please indicate whether the reported Relaxation of CC(C)n1nc(C(=O)NCCN2CCN(Cc3ccccc3)CC2)c2ccccc21 is strictly below 8%.
[out] false (0)

[in] Please let me know if CC(C)n1nc(C(=O)NCCN2CCCCCC2)c2ccccc21 shows Relaxation below 8%.
[out] true (1)

###

biological target: Adrenergic receptor alpha-1 (Rattus norvegicus) (UniProt P15823+P23944+P43140); assay: Affinity for the alpha-1 adrenergic receptor determined by the displacement of [3H]prazosin from rat whole brain tissue.; assay type: tissue-based
measurementType: pKi
Answers are plain numbers.

The following compounds have reported results that may help.
# querySmiles, endpointValue
records = [
    ("CC(C)n1nc(C(=O)NCCCCN2CCCCC2)c2ccccc21", 5.2),
    ("CC(C)n1nc(C(=O)NC2CCN(CCCOc3ccc(F)cc3)CC2)c2ccccc21", 7.69),
    ("CC(C)n1nc(C(=O)NCCN2CCCCC2)c2ccccc21", 4.8),
]

Could you now look at the following compound, please?
[in] Give pKi for the following compound: CC(C)n1nc(C(=O)NCCN2CCCCCC2)c2ccccc21
[out] 5

###

molecular target: 5-hydroxytryptamine receptor 4 (Rattus norvegicus); test: Antagonistic activity by ability to block serotonin induced relaxation (mediated by activation of 5-hydroxytryptamine 4 receptor) in carbamylcholine (10e-6 M) contracted esophagus at a concentration of 10e-6 M.; type: functional, tissue-based
measurementType: Relaxation (%)
Answers are plain numbers, in %.

Look over these answered cases.
# compound, Relaxation / %
rows = [
    ("CC(C)n1nc(C(=O)NC2CCN(CCCc3ccccc3)CC2)c2ccccc21", 3.7),
    ("CC(C)n1nc(C(=O)NC2CC3CCC(C2)N3CCCOc2ccc(F)cc2)c2ccccc21 (stereo not given)", 17.7),
    ("CC(C)n1c(=O)n(C(=O)NC2CCN(C)CC2)c2ccccc21", 7.5),
    ("CC(C)n1nc(C(=O)NCCN2CCC(NC(=O)Cc3ccccc3)CC2)c2ccccc21", 5.6),
    ("CC(C)n1nc(C(=O)NCCN2CCC(NC(=O)NCc3ccccc3)CC2)c2ccccc21", 3.3),
    ("CCCn1c(=O)n(C(=O)NC2CC3CCC(C2)N3C)c2ccccc21 (stereo not given)", 4.3),
]

Could you report Relaxation for every entry in the following list?
1. CC(C)n1nc(C(=O)NC2CCN(CCCCCc3ccccc3)CC2)c2ccccc21
2. CN1[C@@H]2CC[C@H]1C[C@@H](OC(=O)c1c[nH]c3ccccc13)C2
3. CC(C)n1nc(C(=O)NC2CCN(CCNC(=O)C34C[C@H]5C[C@@H](C3)C[C@@H](C4)C5)CC2)c2ccccc21
4. CC(C)n1nc(C(=O)NC2CCN(CCNS(C)(=O)=O)CC2)c2ccccc21

[out]
1. 43.7
2. 33.9
3. 1
4. 6.8

###

target: Adrenergic receptor alpha-1 (Rattus norvegicus) (UniProt P15823+P23944+P43140); assay: Binding affinity for Alpha-1 adrenergic receptor in rat aorta determined by block of norepinephrine induced contraction of rat aorta; assay type: tissue-based
measurementType: pKb
Numbers only.

# compound, pKb
measured = [
    ("CC(C)n1nc(C(=O)NC2CCN(CCNC(=O)c3ccccc3)CC2)c2ccccc21", 5.8),
    ("CC(C)n1nc(C(=O)NC2CCN(CCc3ccccc3)CC2)c2ccccc21", 7.68),
    ("COc1cc(N)c(Cl)cc1C(=O)NC1CCN(CCCOc2ccc(F)cc2)CC1OC (stereo not given)", 6.7),
    ("CC(C)n1nc(C(=O)NCCN2CCCCC2)c2ccccc21", 4.9),
    ("CC(C)n1nc(C(=O)NC2CCN(CCCOc3ccc(F)cc3)CC2)c2ccccc21", 6.7),
    ("CC(C)n1nc(C(=O)NC2CCN(CCCCc3ccccc3)CC2)c2ccccc21", 5.6),
]

Would you kindly look at the next entry?
[in] Indicate the recorded pKb value for this compound: CC(C)n1nc(C(=O)NC2CCN(CCCc3ccccc3)CC2)c2ccccc21
[out] 5.8
